Values were extracted from patent US9988600B2.

# ASSAY PROTOCOL: Effect of polymer embedding on components of DMEM F12 medium (embedded vs non-embedded form);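 note: qualitative label per medium component: Hygros denotes lower hygroscopicity of the embedded form versus the free form, NA denotes not applicable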
# Assay type: physicochemical
# CONDITION INFO: component of DMEM F12 medium embedded in polymer, compared to the non-embedded form
Where a name gives a salt, the structure may show the parent alone.

MOLECULE | embedding effect
CC[C@H](C)[C@H](N)C(=O)O | Solu
Cc1ncc(C[n+]2csc(CCO)c2C)c(N)n1 [Thiamine HCl] | Stab
Cc1cc2nc3c(=O)[nH]c(=O)nc-3n(C[C@H](O)[C@H](O)[C@H](O)CO)c2cc1C | Stab
O.O.O.O.O.O.O.O=S(=O)([O-])[O-].[Fe+2] [Ferrous sulfate 7H2O] | Solu
N[C@@H](Cc1ccc([O-])cc1)C(=O)[O-].O.O.[Na+].[Na+] | Solu
CCCCC/C=C\C/C=C\CCCCCCCC(=O)O | Oxid
N[C@@H](CO)C(=O)O | Solu
Cl.Cl.N[C@@H](CSSC[C@H](N)C(=O)O)C(=O)O [L-Cystine 2HCl (mikronisiert), L-Cystine 2HCl (mikronisiert) aus 200635] | Solu
O=C(O)CCCC[C@@H]1SC[C@@H]2NC(=O)N[C@@H]21 | Stab
CC(C)C[C@H](N)C(=O)O | Solu
NC(=O)CC[C@H](N)C(=O)O | Stab
Cc1ncc(CO)c(CO)c1O.Cl [Pyridoxine HCl] | Stab
N[C@@H](Cc1ccccc1)C(=O)O | Solu
Cl.N[C@@H](Cc1cnc[nH]1)C(=O)O.O [L-Histidine HCl H2O] | Solu
O.O.O.O.O.O=S(=O)([O-])[O-].[Cu+2] [Copper sulfate 5H2O] | Solu
Cl.N[C@@H](CS)C(=O)O.O [L-Cysteine hydrochloride H2O] | Solu
O.O.O.O.O.O.O.O.O.O=[N+]([O-])[O-].O=[N+]([O-])[O-].O=[N+]([O-])[O-].[Fe+3] [Ferric nitrate 9H2O] | Solu
NC(=O)c1cccnc1 [Niacinamide] | Stab
Cl.NCCCC[C@H](N)C(=O)O [L-Lysine hydrochloride] | Solu
C[C@@H](O)[C@H](N)C(=O)O | Solu
C[C@H](N)C(=O)O | Solu
CC(=O)C(=O)[O-].[Na+] [Sodium pyruvate] | Stab
N[C@@H](Cc1c[nH]c2ccccc12)C(=O)O | Solu
Cl.Cl.NCCCCN [Putrescine 2HCl] | Stab
CSCC[C@H](N)C(=O)O | Solu
CC(C)[C@H](N)C(=O)O | Solu
Nc1nc2ncc(CNc3ccc(C(=O)N[C@@H](CCC(=O)O)C(=O)O)cc3)nc2c(=O)[nH]1 | Stab
O.O.O.O.O.O.O.O=S(=O)([O-])[O-].[Zn+2] | Solu
O=C(O)CCCCC1CCSS1 (racemic) | Oxid
NC(=O)C[C@H](N)C(=O)O.O | Solu
